# testDetails: Plasma pharmacokinetics after intranasal (IN) administration
# Format: in vivo, Sprague Dawley® (SD) rats
# testConditions: Sprague-Dawley, rat, inhaled or intranasal; plasma, 0.5 mg/kg IN dose, mean
readoutKind: AUC(0-inf) (ng·h/mL)

> print(dat)
                                givensmiles  observed
1  CC(C)[C@@H](CC[C@@H](C)[C@H]1CC[C@H]2[C@@H]3[C@H](O)C[C@H]4C[C@@H](NCCCNCCCCNCCCN)CC[C@]4(C)[C@H]3CC[C@]12C)OS(=O)(=O)O     17900
